Collected from the literature: Ki of various compounds toward Protein kinase C theta type (Homo sapiens).

# COMPOUND, MEASURED_VALUE
measured = [
    ("CC[C@@H]1CN(c2ccc(C(F)(F)F)c(C(=O)c3cccnc3N)n2)C[C@H](C(C)C)N1", "500 to 2800 nM"),
    ("CCC1CN(c2ccc(C(F)(F)F)c(-c3n[nH]c4ncccc34)n2)CCC1C#N (stereo not drawn)", "< 500 nM"),
]

Simply: CC1(CN)CCCc2sc(-c3ccnc4[nH]ncc34)nc21 (stereo not drawn) , Protein kinase C theta type (Homo sapiens), Ki = < 500 nM

Reported Ki (Protein kinase C theta type (Homo sapiens)) for entry "CC1(C#N)CCN(c2ccc(F)c(-c3n[nH]c4ncccc34)n2)CC1" is > 700 nM

Protein kinase C theta type (Homo sapiens) data for "Cc1ccc(CC(=O)N2CCCN(c3cccc(C(=O)c4cc(Br)cnc4N)n3)CC2)cc1" ; its Ki: 500 to 2800 nM

Observed Ki on Protein kinase C theta type (Homo sapiens), entry "O=c1[nH]c2cnc(NC[C@@H]3CCCNC3)nc2n1Cc1ccccc1C(F)(F)F" , equals < 1000 nM
